# Tested on: TWEAK-Fn14 signalling pathway, BRV5 cells
# ASSAY_COMMENT: Cell-based screening of individual peptides, gene expression microarray in TWEAK-stimulated BRV5 cells
# Parameters: species or system human
# DETAILS: individual peptides, BRV5 + TWEAK, 450 µM, 6 h; mean of replicate columns
# Method: Pool 1 and 5 were therefore deconstructed to assess the effect of individual peptides and their activity on same cell-based screening. Pools 1 and 5 were composed of peptides 45, 46, 42, 3, 49, 11, and 13; and of peptides 1, 9, 30, 35, 41, 43, 7, and 14, respectively. […] RNA from cells was extracted 6 h after treatments by direct lysis on the well. […] Total RNA concentration was measured in a NanoDrop 1000 spectrophotometer (Thermo Scientific, Waltham, MA, USA). […]
So basically: is IL6 mRNA expression (normalized to NARS2) under 0.002? Then 1. Not under? Then 0.

Determine whether this substance shows IL6 mRNA expression (normalized to NARS2) lower than 0.002 (ties excluded): 30: DNGGGNTDIYSE [Peptide 30]
1

Determine whether this substance shows IL6 mRNA expression (normalized to NARS2) lower than 0.002 (ties excluded): 13: YSGYFGGFY [Peptide 13]
0

Determine whether this substance shows IL6 mRNA expression (normalized to NARS2) lower than 0.002 (ties excluded): 42: YNGHVKDD [Peptide 42]
0

Determine whether this substance shows IL6 mRNA expression (normalized to NARS2) lower than 0.002 (ties excluded): SWYDHMAGDSSY [Peptide 35]
0

Determine whether this substance shows IL6 mRNA expression (normalized to NARS2) lower than 0.002 (ties excluded): TKGGGTADA [Peptide 3]
0

Determine whether this substance shows IL6 mRNA expression (normalized to NARS2) lower than 0.002 (ties excluded): 1: GNGTDDNSGTSY [Peptide 1]
0

Determine whether this substance shows IL6 mRNA expression (normalized to NARS2) lower than 0.002 (ties excluded): 46: TGYAENV [Peptide 46]
1

Determine whether this substance shows IL6 mRNA expression (normalized to NARS2) lower than 0.002 (ties excluded): 11: SGVAYQETT [Peptide 11]
1
